Source listed as ChEMBL document CHEMBL4888484.

Entries annotated with measured % Inhibition
Test system: Plasmodium falciparum
Experiment: Confirmatory screen in NF54 nanoGlo assay, in single point, at 2uM, 72h
Type: functional, Erythrocyte
Settings: timepoint 72 hour
In all, about 4,800 compounds went through this assay and about 420 (8.8%) showed an effect of 50% or more. This excerpt belongs to a sample that is enriched for strong results.
Return type: number; implicit unit %.

>>> print(df.to_string())
                                   compound  measure_name  reported_value
0  Brc1cccc(-c2ccc(-c3cc(-c4ccccc4)nnc3-c3ccccc3)o2)c1  % Inhibition              31
1  CCn1nc(C)c(CN(C)C(=O)c2nn3cccnc3c2Cl)c1C  % Inhibition              -2
2  COC(=O)Nc1nc(-c2ccccc2)c(-c2nc3ccccc3c(=O)n2-c2ccc(OC)cc2)s1  % Inhibition               5
3   Cc1cccc(OC[C@@H](O)Cn2cnc(C)c(C)c2=O)c1  % Inhibition               5

Fill blank: measured % Inhibition of the compound O=C(CCCc1ccccc1)Nc1cc(C2CC2)nn1-c1nc(-c2ccccc2)cc(=O)[nH]1 is ____.
48

Fill blank: measured % Inhibition of the compound CN(C(=O)c1ccccc1Br)C(C)(C)C is ____.
-10

Fill blank: measured % Inhibition of the compound COc1nc(NC[C@H]2CCCN2C(C)C)ncc1F is ____.
66

Fill blank: measured % Inhibition of the compound COc1ccc2c(c1)CN(c1nnc(C3CC3)o1)CC2 is ____.
7

Fill blank: measured % Inhibition of the compound CC(C(=O)Nc1ncccn1)N1CCCC1Cn1cccn1 (configuration not stated) is ____.
-4

Fill blank: measured % Inhibition of the compound COc1ccc(S(=O)(=O)N2CCN(Cc3noc(CCC(=O)N(C)Cc4ccccc4)n3)CC2)cc1 is ____.
-6

Fill blank: measured % Inhibition of the compound Cc1nsc2ncc(C(=O)N3CCC(C)CC3)c(N3CCC(C(=O)Nc4cc(F)ccc4F)CC3)c12 is ____.
60

Fill blank: measured % Inhibition of the compound CN1CCN(Cc2cc3cc4c(cc3nc2-c2ccc(Cl)cc2)OCO4)CC1=O is ____.
53

Fill blank: measured % Inhibition of the compound CC(C)N1CCC2(CC1)N=C(c1ccc3c(c1)OCO3)C[C@@H](c1cc(Cl)ccc1O)N2 is ____.
41

Fill blank: measured % Inhibition of the compound Cc1cc2nc(C(=O)NC3CCN(Cc4ccccc4)CC3)c(=O)n(C)c2cc1C is ____.
-8

* * *

Test system: Plasmodium falciparum
Experiment: Confirmatory screen in NF54 nanoGlo assay, in single point, at 2uM, 72h
Assay type: functional, Erythrocyte
Conditions: timepoint 72 hour
In all, about 4,800 compounds went through this assay and about 420 (8.8%) showed an effect of 50% or more. This is one part of a sample in which strong results are shown more often than they occur.
Entries annotated with measured % Inhibition

>>> print(df.to_string())
                               entry_smiles  measure_name  reported_value
0          O=C1NCCCc2nn(Cc3cc(F)ccc3Br)cc21  % Inhibition            -12%
1  COc1cc(OC)c(NC(=O)COc2ccccc2-c2nc3ccccc3s2)cc1Cl  % Inhibition              0%
2     Cc1cc(C(=O)NCCCn2cccn2)nc(N2CCOCC2)n1  % Inhibition              0%
3   O=S1(=O)NC(c2ccccc2)(c2ccccc2)c2ccccc21  % Inhibition              1%

Fill blank: measured % Inhibition of the compound COc1cc([C@H](CC(=O)NC2CCN(Cc3ccccc3)CC2)N2Cc3ccccc3C2=O)cc(OC)c1OC is ____.
33%

Fill blank: measured % Inhibition of the compound COCCN(c1ccncc1)S(C)(=O)=O is ____.
6%

Fill blank: measured % Inhibition of the compound Cc1nn(-c2ncc(C(F)(F)F)cc2Cl)c(=O)n1-c1cccc(F)c1 is ____.
-4%

Fill blank: measured % Inhibition of the compound Cc1cccc(Cc2c(C)nn(-c3nc(C)cc(C)n3)c2O)c1 is ____.
-18%

Fill blank: measured % Inhibition of the compound Cc1cc(NC(=O)Cn2c(=O)n(CC(C)C)c(=O)c3sccc32)no1 is ____.
-13%

Fill blank: measured % Inhibition of the compound Cn1c(-c2ccc(Cl)c(Cl)c2)c[n+](CC(=O)c2ccc(-c3ccccc3)cc2)c1N is ____.
6%

Fill blank: measured % Inhibition of the compound CS(=O)(=O)N1CC[C@H](N(C(=O)NCCc2ccccc2)C2CCOCC2)C1 is ____.
-14%

* * *

Entries annotated with measured % Inhibition
Test system: Plasmodium falciparum
Test: Confirmatory screen in NF54 nanoGlo assay, in single point, at 2uM, 72h
Type: functional, Erythrocyte
Settings: timepoint 72 hour
In all, about 4,800 compounds went through this assay and about 420 (8.8%) showed an effect of 50% or more. For the sample, strong results were picked, then their nearest neighbours and some compounds at random.
Return type: number; implicit unit %.

>>> df
                                   compound          system_tested  reported_value
0   O=C(C[C@H]1CCN(C(=O)Nc2ccccc2)C1)NC1CC1  Plasmodium falciparum              -6
1  Cc1ccc(C2=C[C@@H](c3ccc(Cl)cc3)n3nc(NC(=O)c4ccccc4)nc3N2)cc1  Plasmodium falciparum              94
2  CCc1nn(C)cc1CN(Cc1cccc(O)c1)C1CCC(O)CC1 (stereo unspecified)  Plasmodium falciparum              -3
3  COCc1cc2nn(CC(=O)Nc3ccc(F)cc3C)c(=O)n2c(-c2ccccc2)n1  Plasmodium falciparum             -15
4          Oc1cccc(CN[C@H]2CCCc3occc32)c1Cl  Plasmodium falciparum              71

# value lookup — system Plasmodium falciparum, readout % Inhibition, item O=C(CCC1CCCC1)N1CCC(N2CCCCCC2)CC1
6

# value lookup — system Plasmodium falciparum, readout % Inhibition, item CC1CC(C)CC2(C1)NC(=O)N(CCC1OCCO1)C2=O (stereo unspecified)
-1

# value lookup — system Plasmodium falciparum, readout % Inhibition, item CC(C)CC(=O)N=c1nc(S)ss1
-4

# value lookup — system Plasmodium falciparum, readout % Inhibition, item Cc1ccc(CN(C)C2CCCCC2)o1
-18

# value lookup — system Plasmodium falciparum, readout % Inhibition, item CC(C)(C)NC(=O)N[C@H]1COc2c1ccc(Cl)c2Cl
-3

# value lookup — system Plasmodium falciparum, readout % Inhibition, item COc1ccc(CCNc2oc(-c3cccnc3)nc2C#N)cc1OC
31

# value lookup — system Plasmodium falciparum, readout % Inhibition, item C[C@H]1CNCCN1C(=O)c1coc2ccccc12
-4

# value lookup — system Plasmodium falciparum, readout % Inhibition, item CN1CCN(c2nc(-c3cccc(C(F)(F)F)c3)nc3c2cnn3Cc2ccccc2)CC1
-4

# value lookup — system Plasmodium falciparum, readout % Inhibition, item CCC(=O)N1CCN(c2cc(Nc3ccc(C)cc3)nc(C)n2)CC1
-1

* * *

Test system: Plasmodium falciparum
Experiment: Confirmatory screen in NF54 nanoGlo assay, in single point, at 2uM, 72h
Type: functional, Erythrocyte
Conditions: timepoint 72 hour
Screen size: about 4,800 compounds; about 420 (8.8%) showed an effect of 50% or more. The list comes from a sample in which strong results are over-represented; it also holds close analogues and randomly drawn compounds.
MEASURE_NAME: % Inhibition

>>> df
                entry_smiles  measure_name  reported_value
0  Fc1cnc(OC2Cc3ccccc3C2)nc1  % Inhibition             57%

Fill blank: measured % Inhibition of the molecule Cc1ccc(CNC2CCN(C)CC2)c(OCc2ccco2)c1 is ____.
-3%

Fill blank: measured % Inhibition of the molecule CCOc1ccc(NC(=O)c2ccc3c(c2)N(CC)[C@@H]2CCCCN2C3=O)cc1 is ____.
7%

Fill blank: measured % Inhibition of the molecule Cn1ncnc1CCNC(=O)NC(C1CCCC1)C1CCCC1 is ____.
1%

Fill blank: measured % Inhibition of the molecule O=c1[nH]c2nccnc2c(=O)n1Cc1ccc(F)cc1 is ____.
-11%

Fill blank: measured % Inhibition of the molecule CCNC(=O)C(=O)NCc1ccc(OC)cc1 is ____.
-17%

* * *

Test system: Plasmodium falciparum
Test: Confirmatory screen in NF54 nanoGlo assay, in single point, at 2uM, 72h
Type: functional, Erythrocyte
Conditions: timepoint 72 hour
Among all 4,800 compounds or so, about 420 (8.8%) showed an effect of 50% or more. The entries come from a sample that favours strong results as a whole.
Entries annotated with measured % Inhibition
Return type: number; implicit unit %.

                               entry_smiles  measure_name  reported_value
0  CCN(CC)CCCNC(=O)c1ccc(-c2nc(CS(=O)(=O)c3ccccc3)c(C)o2)cc1  % Inhibition             -10
1  CCN(CC)CCCNC(=O)[C@H]1CCCN(c2nc3ccccc3n(Cc3ccccc3)c2=O)C1  % Inhibition               0

# value lookup — system Plasmodium falciparum, readout % Inhibition, item O=C(c1cc(F)c[nH]1)N1CCN(C(=O)c2cc(F)c[nH]2)[C@@H]2CCCC[C@H]21
13

# value lookup — system Plasmodium falciparum, readout % Inhibition, item O=c1[nH]c2nc(N3CCC(N4CCCCC4)CC3)ncc2c(=O)n1-c1ccc2c(c1)OCO2
-9

# value lookup — system Plasmodium falciparum, readout % Inhibition, item CCN1CCC(CCNC(=O)c2cc3c(s2)N(CC)CCCC3)CC1
-7
